Biological target: human full-length HSP90 (Homo sapiens)
Sequence (P08238 whole entry): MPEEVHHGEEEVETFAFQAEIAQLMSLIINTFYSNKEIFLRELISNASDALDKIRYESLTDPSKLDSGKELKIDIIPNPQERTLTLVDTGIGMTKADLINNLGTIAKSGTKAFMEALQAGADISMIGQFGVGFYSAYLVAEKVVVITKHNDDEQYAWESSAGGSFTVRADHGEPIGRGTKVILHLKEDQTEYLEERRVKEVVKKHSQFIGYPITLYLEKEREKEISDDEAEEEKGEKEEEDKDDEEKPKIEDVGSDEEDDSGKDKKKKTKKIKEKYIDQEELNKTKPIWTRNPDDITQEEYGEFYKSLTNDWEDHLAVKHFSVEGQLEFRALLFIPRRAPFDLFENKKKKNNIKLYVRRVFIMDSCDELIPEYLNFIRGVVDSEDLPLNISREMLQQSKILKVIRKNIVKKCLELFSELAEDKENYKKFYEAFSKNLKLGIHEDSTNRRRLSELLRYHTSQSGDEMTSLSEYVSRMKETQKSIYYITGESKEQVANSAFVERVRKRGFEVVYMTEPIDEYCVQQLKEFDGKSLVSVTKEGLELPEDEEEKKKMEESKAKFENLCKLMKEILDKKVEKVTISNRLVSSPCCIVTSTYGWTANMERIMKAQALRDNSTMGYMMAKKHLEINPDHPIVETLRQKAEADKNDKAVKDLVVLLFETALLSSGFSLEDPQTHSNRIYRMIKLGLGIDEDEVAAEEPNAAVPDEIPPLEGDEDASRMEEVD
measuredEndpoint: IC50

Example entries and their recorded answers appear below.
> print(dat)
                                   compound                       measurementtarget  measuredresult
1  CCNC(=O)c1cc2c(C(=NO)c3ccncc3)nc(N)nc2s1  human full-length HSP90 (Homo sapiens)         > 10 µM
2  CCN(CC)CCON=C(c1ccc2c(c1)OCO2)c1nc(N)nc2sc(C(=O)NC3CC3)cc12  human full-length HSP90 (Homo sapiens)         < 10 µM
3  CCNC(=O)c1cc2c(C(=NOCCN3CCCC3)c3cccs3)nc(N)nc2s1  human full-length HSP90 (Homo sapiens)         > 10 µM
4  CN(C)CCCNC(=O)c1cc2c(C(=NO)c3ccc4c(c3)OCO4)nc(N)nc2s1  human full-length HSP90 (Homo sapiens)         < 10 µM
5  CCN(CC)CCON=C(c1ccc2c(c1)OCO2)c1nc(N)nc2sc(C(=O)NC(C)C)cc12  human full-length HSP90 (Homo sapiens)         < 10 µM

Parameter requested: IC50. Apply to each item below.
1. CCNC(=O)c1cc2c(C(=NOCCN3CCCC3=O)c3ccc4c(c3)OCO4)nc(N)nc2s1 (mixture of isomers)
2. CN(C)CCNC(=O)c1cc2c(C(=NO)c3ccc4c(c3)OCO4)nc(N)nc2s1

RESULT:
1. < 10 µM
2. < 10 µM
